# target under test: human ROR1 (Homo sapiens, UniProt Q01973)
# Construct: host or cells: HEK 293T cells, Tet-on system induced with doxycycline
# Sequence (Q01973 30-937): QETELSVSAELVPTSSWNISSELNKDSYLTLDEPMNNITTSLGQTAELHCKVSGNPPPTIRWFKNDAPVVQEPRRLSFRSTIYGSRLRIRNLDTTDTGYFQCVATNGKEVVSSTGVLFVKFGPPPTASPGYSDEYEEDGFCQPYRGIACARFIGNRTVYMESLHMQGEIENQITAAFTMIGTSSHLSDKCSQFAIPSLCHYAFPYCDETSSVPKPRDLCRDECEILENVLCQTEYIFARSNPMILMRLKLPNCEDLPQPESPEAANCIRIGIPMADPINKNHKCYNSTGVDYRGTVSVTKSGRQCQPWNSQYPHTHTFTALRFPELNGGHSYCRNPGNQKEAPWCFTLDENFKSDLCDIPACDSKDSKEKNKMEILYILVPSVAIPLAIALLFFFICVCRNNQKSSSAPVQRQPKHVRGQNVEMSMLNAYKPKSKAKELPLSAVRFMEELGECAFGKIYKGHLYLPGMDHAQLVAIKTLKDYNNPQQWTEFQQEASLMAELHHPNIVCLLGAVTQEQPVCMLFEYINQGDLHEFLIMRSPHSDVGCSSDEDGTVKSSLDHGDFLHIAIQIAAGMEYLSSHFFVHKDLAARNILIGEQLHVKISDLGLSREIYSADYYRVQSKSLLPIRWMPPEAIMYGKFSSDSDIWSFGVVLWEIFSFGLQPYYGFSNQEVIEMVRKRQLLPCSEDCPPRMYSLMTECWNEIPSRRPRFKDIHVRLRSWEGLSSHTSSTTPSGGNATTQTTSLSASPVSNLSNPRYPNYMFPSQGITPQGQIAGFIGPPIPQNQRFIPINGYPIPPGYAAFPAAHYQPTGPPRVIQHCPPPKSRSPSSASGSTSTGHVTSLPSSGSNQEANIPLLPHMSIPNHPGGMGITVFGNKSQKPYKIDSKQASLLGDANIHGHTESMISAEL
# assay info: ROR1 high content cell-based binding assay
# condition set: read-out: ROR1 Binding 293T Human HC Cell Based Assay IC50
pIC50: −log10 of the molar value. Positions of bridges follow the written chain, without caps; N, C: chain ends. Non-standard residues stand in square brackets, D forms with d. Residues, ends and D or L forms follow the SMILES beside them. NMeF = CN[C@@H](Cc1ccccc1)C(=O)O

>  <compound>
CC(C)C[C@@H]1NC(=O)[C@H](Cc2ccc(O)cc2)NC(=O)[C@H](Cc2ccccc2)NC(=O)CSC[C@@H](C(=O)NCC(N)=O)NC(=O)[C@H](CC(C)C)NC(=O)[C@H](Cc2ccccc2)N(C)C(=O)[C@H](Cc2ccc(O)cc2)NC(=O)[C@H](Cc2c[nH]c3ccccc23)NC(=O)[C@H](CCCNC(=N)N)NC(=O)[C@H](CO)NC(=O)[C@H](Cc2ccc(O)cc2)NC(=O)[C@H](C(C)C)NC1=O [Example 1047] ({CH2CO}-FYLVYSRWY[NMeF]LCG-NH2; thioether N-12)

>  <pIC50>
6.61

$$$$

====

# target under test: human ROR1 (Homo sapiens)
# Construct: host or cells: HEK 293T cells, Tet-on system induced with doxycycline
# assay info: ROR1 high content cell-based binding assay
# condition set: read-out: ROR1 Binding 293T Human HC Cell Based Assay IC50
Positions of bridges follow the written chain, without caps; N, C: chain ends. Non-standard residues stand in square brackets, D forms with d. Residues, ends and D or L forms follow the SMILES beside them. NMeF = CN[C@@H](Cc1ccccc1)C(=O)O; NMeL = CN[C@@H](CC(C)C)C(=O)O; NMeA = CN[C@@H](C)C(=O)O; Nle = CCCC[C@H](N)C(=O)O

>  <compound>
CC(C)C[C@@H]1NC(=O)[C@H](Cc2c[nH]c3ccccc23)NC(=O)[C@H](Cc2ccccc2)NC(=O)[C@H](Cc2c[nH]c3ccccc23)NC(=O)CNC(=O)[C@H](CO)NC(=O)[C@H](Cc2ccc(O)cc2)NC(=O)[C@H](C(C)C)NC(=O)[C@H](CCCNC(=N)N)NC(=O)[C@H](Cc2ccccc2)NC(=O)[C@H](Cc2ccccc2)NC(=O)CSC[C@@H](C(=O)NCC(N)=O)NC1=O [Example 1006] ({CH2CO}-FFRVYSGWFWLCG-NH2; thioether N-12)

>  <IC50, nM>
147

$$$$
>  <compound>
CCCC[C@@H]1NC(=O)[C@H](Cc2ccc(O)cc2)NC(=O)[C@H](Cc2c[nH]c3ccccc23)NC(=O)[C@H](C)N(C)C(=O)[C@H](CCCNC(=N)N)NC(=O)[C@H](CO)NC(=O)[C@H](CO)NC(=O)[C@H](Cc2c[nH]c3ccccc23)NC(=O)[C@H](Cc2ccc(O)cc2)NC(=O)[C@H](Cc2ccccc2)NC(=O)CSC[C@@H](C(N)=O)NC(=O)[C@H](CC(C)C)N(C)C1=O [Example 1096] ({CH2CO}-FYWSSR[NMeA]WY[Nle][NMeL]C-NH2; thioether N-12)

>  <IC50, nM>
4

$$$$
>  <compound>
CC(C)C[C@@H]1NC(=O)[C@H](Cc2ccc(O)cc2)NC(=O)[C@H](Cc2cnc[nH]2)NC(=O)CSC[C@@H](C(=O)NCC(N)=O)NC(=O)[C@H](CC(C)C)NC(=O)[C@H](Cc2ccccc2)N(C)C(=O)[C@H](Cc2ccc(O)cc2)NC(=O)[C@H](Cc2c[nH]c3ccccc23)NC(=O)CNC(=O)[C@H](CO)NC(=O)[C@H](Cc2ccc(O)cc2)NC(=O)[C@H](C(C)C)NC1=O [Example 1075] ({CH2CO}-HYLVYSGWY[NMeF]LCG-NH2; thioether N-12)

>  <IC50, nM>
30

$$$$

====

# target under test: human ROR1 (Homo sapiens, UniProt Q01973)
# Construct: host or cells: HEK 293T cells, Tet-on system induced with doxycycline
# assay info: ROR1 high content cell-based binding assay
# condition set: read-out: ROR1 Binding 293T Human HC Cell Based Assay IC50
Positions of bridges follow the written chain, without caps; N, C: chain ends. Non-standard residues stand in square brackets, D forms with d. Residues, ends and D or L forms follow the SMILES beside them. ξ: configuration not given here. NMeF = CN[C@@H](Cc1ccccc1)C(=O)O; ξC = NC(CS)C(=O)O
IC50 by entry:
measurement kind: IC50 (nM)

>  <compound>
CC(C)C[C@@H]1NC(=O)[C@H](CC(N)=O)NC(=O)[C@H](Cc2ccccc2)N(C)C(=O)CNC(=O)[C@H](Cc2ccc(O)cc2)NC(=O)[C@H](Cc2ccccc2)NC(=O)CSCC(C(N)=O)NC(=O)[C@H](Cc2c[nH]c3ccccc23)NC(=O)[C@H](Cc2ccccc2)NC1=O (stereo partly shown) [Example 1104] ({CH2CO}-FYG[NMeF]NLFW[ξC]-NH2; thioether N-9)

>  <measurement kind>
IC50

>  <reading unit>
nM

>  <experimental value>
31

$$$$
>  <compound>
CC[C@H](C)[C@@H]1NC(=O)[C@H](Cc2ccccc2)NC(=O)CSC[C@@H](C(=O)NCC(N)=O)NC(=O)[C@H](C)NC(=O)[C@H](Cc2ccccc2)NC(=O)[C@H](Cc2ccc(O)cc2)NC(=O)[C@H](Cc2c[nH]c3ccccc23)NC(=O)CNC(=O)[C@H](CCC(=O)O)NC(=O)[C@H](Cc2ccc(O)cc2)NC(=O)[C@H](C(C)C)NC(=O)[C@H](Cc2c[nH]c3ccccc23)NC1=O [Example 1008] ({CH2CO}-FIWVYEGWYFACG-NH2; thioether N-12)

>  <measurement kind>
IC50

>  <reading unit>
nM

>  <experimental value>
36

$$$$
>  <compound>
CC(C)C[C@@H]1NC(=O)[C@H](Cc2ccc(O)cc2)NC(=O)[C@H](Cc2ccccc2)NC(=O)CSC[C@@H](C(=O)NCC(N)=O)NC(=O)[C@H](CC(C)C)NC(=O)[C@H](Cc2ccccc2)N(C)C(=O)[C@H](Cc2ccc(O)cc2)NC(=O)[C@H](Cc2c[nH]c3ccccc23)NC(=O)CNC(=O)[C@H](CO)NC(=O)[C@H](Cc2cnc[nH]2)NC(=O)[C@H](C(C)C)NC1=O [Example 1030] ({CH2CO}-FYLVHSGWY[NMeF]LCG-NH2; thioether N-12)

>  <measurement kind>
IC50

>  <reading unit>
nM

>  <experimental value>
275

$$$$
>  <compound>
CC(C)C[C@@H]1NC(=O)[C@H](Cc2ccc(O)cc2)NC(=O)[C@H](Cc2ccccc2)NC(=O)CSC[C@@H](C(=O)NCC(N)=O)NC(=O)[C@H](CC(C)C)NC(=O)[C@H](Cc2ccccc2)N(C)C(=O)[C@H](Cc2ccc(O)cc2)NC(=O)[C@H](Cc2c[nH]c3ccccc23)NC(=O)[C@H](CCCCN)NC(=O)[C@H](CO)NC(=O)[C@H](Cc2ccc(O)cc2)NC(=O)[C@H](C(C)C)NC1=O [Example 1056] ({CH2CO}-FYLVYSKWY[NMeF]LCG-NH2; thioether N-12)

>  <measurement kind>
IC50

>  <reading unit>
nM

>  <experimental value>
740

$$$$
